# Lookup of reported Average (percentage cell inhibition), Mastoparan PBMC keyed by entry
system: PBMC; settings: 12.5 µM
Note: unit % is implicit; provide only the numeric part.

>  <compound>
CC[C@H](C)[C@H](N)C(=O)N[C@@H](CC(N)=O)C(=O)N[C@@H](CC(C)C)C(=O)N[C@@H](CCCCN)C(=O)N[C@@H](C)C(=O)N[C@@H](CC(C)C)C(=O)N[C@@H](C)C(=O)N[C@@H](C)C(=O)N[C@H](C(=O)N[C@@H](C)C(=O)N[C@@H](CCCCN)C(=O)N[C@@H](CCCCN)C(=O)N[C@H](C(=O)N[C@@H](CC(C)C)C(N)=O)[C@@H](C)CC)C(C)C [V9]

>  <valueUnits>
%

>  <endpointValue>
10.0305

$$$$

Problem: Look at this compound and give its reported Average (percentage cell inhibition), Mastoparan PBMC. CC[C@H](C)[C@H](N)C(=O)N[C@@H](CC(N)=O)C(=O)N[C@@H](CC(C)C)C(=O)N[C@@H](Cc1ccc(O)cc1)C(=O)N[C@@H](C)C(=O)N[C@@H](CC(C)C)C(=O)N[C@@H](C)C(=O)N[C@@H](C)C(=O)N[C@@H](CC(C)C)C(=O)N[C@@H](C)C(=O)N[C@@H](CCCCN)C(=O)N[C@@H](CCCCN)C(=O)N[C@H](C(=O)N[C@@H](CC(C)C)C(N)=O)[C@@H](C)CC [Y4]
Result: 3.789

Problem: Look at this compound and give its reported Average (percentage cell inhibition), Mastoparan PBMC. CC[C@H](C)[C@H](N)C(=O)N[C@@H](CCC(=O)O)C(=O)N[C@@H](CC(C)C)C(=O)N[C@@H](CCCCN)C(=O)N[C@@H](C)C(=O)N[C@@H](CC(C)C)C(=O)N[C@@H](C)C(=O)N[C@@H](C)C(=O)N[C@@H](CC(C)C)C(=O)N[C@@H](C)C(=O)N[C@@H](CCCCN)C(=O)N[C@@H](CCCCN)C(=O)N[C@H](C(=O)N[C@@H](CC(C)C)C(N)=O)[C@@H](C)CC [E2]
Result: 11.8092
